# credit: BindingDB's records for patent US20240383913

# target_or_system: D(2) dopamine receptor (Homo sapiens)
# Sequence (P14416 whole entry): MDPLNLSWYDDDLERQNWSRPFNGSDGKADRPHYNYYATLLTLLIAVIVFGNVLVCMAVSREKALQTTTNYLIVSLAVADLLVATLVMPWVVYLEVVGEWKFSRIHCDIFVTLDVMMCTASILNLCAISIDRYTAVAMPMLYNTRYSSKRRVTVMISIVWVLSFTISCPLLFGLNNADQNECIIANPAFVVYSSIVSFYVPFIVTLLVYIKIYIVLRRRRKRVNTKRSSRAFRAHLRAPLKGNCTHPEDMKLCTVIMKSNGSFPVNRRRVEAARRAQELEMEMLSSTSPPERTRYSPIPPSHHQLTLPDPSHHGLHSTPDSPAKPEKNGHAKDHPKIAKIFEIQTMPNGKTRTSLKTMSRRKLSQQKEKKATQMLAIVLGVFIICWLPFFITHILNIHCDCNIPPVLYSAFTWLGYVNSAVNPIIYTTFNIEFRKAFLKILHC
# method_summary: Affinity of Compounds for Dopamine D2 Receptors
observation_type: Ki (nM)

1. c1ccc(-c2cccc(CN3CCN4c5cccc6scc(c56)CC4C3)c2)cc1 (stereo unspecified) | 310

====

# target_or_system: UniProt P28223
# Sequence (P28223 whole entry): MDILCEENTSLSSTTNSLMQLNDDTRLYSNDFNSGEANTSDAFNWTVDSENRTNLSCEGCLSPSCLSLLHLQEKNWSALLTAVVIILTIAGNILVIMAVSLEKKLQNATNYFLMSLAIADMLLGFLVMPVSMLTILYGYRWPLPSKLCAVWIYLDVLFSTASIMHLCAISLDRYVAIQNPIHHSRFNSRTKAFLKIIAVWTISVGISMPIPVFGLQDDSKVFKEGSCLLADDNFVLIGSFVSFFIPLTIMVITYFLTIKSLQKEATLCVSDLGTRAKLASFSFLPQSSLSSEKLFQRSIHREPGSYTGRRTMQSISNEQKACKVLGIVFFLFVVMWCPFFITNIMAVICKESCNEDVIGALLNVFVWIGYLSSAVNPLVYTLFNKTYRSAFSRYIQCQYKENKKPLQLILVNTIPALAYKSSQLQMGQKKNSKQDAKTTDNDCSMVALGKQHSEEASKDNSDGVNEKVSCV
pKi: −log10 of the molar value.
observation_type: pKi

1. c1ccc(-c2cccc(CN3CCN4c5cccc6scc(c56)CC4C3)c2)cc1 (stereo unspecified) [US20240383913, Compound I-7] | 6.04
